study_target: Prostaglandin G/H synthase 1 (Ovis aries, UniProt P05979)
Sequence (P05979 whole entry): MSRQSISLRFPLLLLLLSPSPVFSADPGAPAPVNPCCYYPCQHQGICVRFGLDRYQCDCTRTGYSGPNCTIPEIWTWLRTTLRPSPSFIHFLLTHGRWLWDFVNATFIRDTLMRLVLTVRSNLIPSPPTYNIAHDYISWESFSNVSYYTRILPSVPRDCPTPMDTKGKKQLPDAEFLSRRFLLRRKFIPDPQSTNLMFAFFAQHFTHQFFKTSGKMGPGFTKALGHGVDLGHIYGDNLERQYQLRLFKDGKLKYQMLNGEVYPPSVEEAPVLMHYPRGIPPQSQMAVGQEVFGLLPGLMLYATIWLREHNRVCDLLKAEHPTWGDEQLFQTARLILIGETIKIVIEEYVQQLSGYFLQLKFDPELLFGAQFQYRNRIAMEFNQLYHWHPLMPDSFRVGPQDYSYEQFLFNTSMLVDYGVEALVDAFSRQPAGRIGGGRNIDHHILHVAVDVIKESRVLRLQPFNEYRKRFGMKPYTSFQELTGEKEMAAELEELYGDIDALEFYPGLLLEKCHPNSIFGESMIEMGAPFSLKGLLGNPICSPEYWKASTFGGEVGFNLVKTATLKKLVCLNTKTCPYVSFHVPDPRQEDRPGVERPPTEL
assay_text: Inhibition of ovine COX1 pre-incubated for 10 mins before arachidonic acid substrate addition by enzyme immunoassay

>  <molecule>
CC(C(=O)O)c1ccc2c3cc(Cl)ccc3n(C(=O)Nc3ccc(Cl)cc3)c2c1 (racemic)

>  <IC50>
41.3 µM

$$$$
>  <molecule>
CCCCCCNC(=O)n1c2ccc(Cl)cc2c2ccc(C(C)C(=O)O)cc21 (racemic)

>  <IC50>
> 100 µM

$$$$
>  <molecule>
CC(=O)n1c2ccc(Cl)cc2c2ccc(C(C)C(=O)O)cc21 (racemic)

>  <IC50>
> 100 µM

$$$$
>  <molecule>
CC(C(=O)O)c1ccc2c3cc(Cl)ccc3n(C(=O)c3ccc(F)cc3)c2c1 (racemic)

>  <IC50>
> 100 µM

$$$$
>  <molecule>
CCCCCCS(=O)(=O)n1c2ccc(Cl)cc2c2ccc(C(C)C(=O)O)cc21 (racemic)

>  <IC50>
> 100 µM

$$$$
